- assay target: Histone acetyltransferase RTT109 (Candida albicans (strain SC5314 / ATCC MYA-2876))
- test summary: C. albicans Rtt109 HAT inhibition curves – biochemical, cherry-picked hits, plate reader, dose response (AID 588764)
- experimental parameters: Rtt109/Vps75 HAT activity
Records with an inconclusive call do not appear.
Measured AC50, listed per entry for reference.

Below: 3 compounds and their reported AC50.
                                   compound   result
0                    CN(C)C(=S)SSC(=S)N(C)C   3.4 µM
1                 CSS(=O)(=O)c1cccc2cccnc12  7.95 µM
2  Cc1ccc(NC(=O)c2cc(N3C(=O)C=CC3=O)ccc2N2CCOCC2)cc1  7.03 µM

// field: AC50; key: O=C(Nc1ccccc1Cl)/C(Cl)=C(\Cl)S(=O)c1ccccc1 (configuration not stated) ; value = 8.62 µM

// field: AC50; key: `CCOC(=O)/C=C/C(=O)Nc1cccc([N+](=O)[O-])c1` ; value = 5.91 µM

// field: AC50; key: C=CCNc1nnc(SC2CC(=O)N(c3ccc(OC)cc3)C2=O)s1 (configuration not stated) ; value = 13.4 µM

// field: AC50; key: `Cc1ccc(/C=C/C(=O)NCc2ccc(S(N)(=O)=O)cc2)o1` ; value = 10.7 µM

// field: AC50; key: `CCOC(=O)C(=Cc1cc(=O)c(OC)co1)C(=O)OCC` ; value = 10.7 µM

// field: AC50; key: `Cc1cc(C)c2c(=O)n(CC(=O)Nc3cccc(Cl)c3C)sc2n1` ; value = 1.98 µM

// field: AC50; key: `CCn1c(C)c(CS(=O)(=O)c2ccccc2)[nH]c1=O` ; value = 11.3 µM

// field: AC50; key: Cc1ccccc1N1C(S)=C(C#N)C(=O)NC1c1cccs1 (configuration not stated) ; value = 17.7 µM

// field: AC50; key: `O=C(NCc1ccccc1)c1nc(S(=O)(=O)Cc2ccccc2)ncc1Cl` ; value = 15 µM

---

Measured AC50, listed per entry for reference.
- assay target: Histone acetyltransferase RTT109 (Candida albicans (strain SC5314 / ATCC MYA-2876)) (UniProt Q5AAJ8)
- Sequence (Q5AAJ8 whole entry, looked up): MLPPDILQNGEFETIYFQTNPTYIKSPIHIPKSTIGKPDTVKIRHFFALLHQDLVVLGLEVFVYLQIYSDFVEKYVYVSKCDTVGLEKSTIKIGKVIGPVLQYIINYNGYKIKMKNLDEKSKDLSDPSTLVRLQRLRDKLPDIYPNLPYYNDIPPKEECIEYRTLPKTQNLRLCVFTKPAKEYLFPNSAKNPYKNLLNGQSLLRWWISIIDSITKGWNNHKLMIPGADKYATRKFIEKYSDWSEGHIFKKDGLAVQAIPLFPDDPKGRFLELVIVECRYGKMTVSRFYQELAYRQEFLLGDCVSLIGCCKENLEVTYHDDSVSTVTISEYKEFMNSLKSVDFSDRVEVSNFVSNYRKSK
- test summary: C. albicans Rtt109 HAT inhibition curves – biochemical, cherry-picked hits, plate reader, dose response (AID 588764)
- experimental parameters: Rtt109/Vps75 HAT activity
Results filed as inconclusive are left out.

Below: 2 compounds and their reported AC50.
>>> df
                                   compound  endpoint_name   result
0  CS(=O)(=O)c1ncc(Cl)c(C(=O)Nc2ccc(N3CCOCC3)cc2)n1           AC50  8.27 µM
1    O=C1C(Cl)=C(N2CCOCC2)C(=O)N1c1ccccc1Cl           AC50  14.8 µM

// field: AC50; key: `COC(=O)c1cccc(-n2sc3ccccc3c2=O)c1` ; value = 4.38 µM

// field: AC50; key: `C[C@]12CC[C@@H]3c4ccc(O)c(O)c4CC[C@H]3[C@@H]1CC[C@@H]2O` ; value = 10 µM

// field: AC50; key: `CCOC(=O)N1CCN(Cc2c(O)ccc3ccccc23)CC1` ; value = 18.8 µM

// field: AC50; key: `O=C(CCc1ccc(S(=O)(=O)N2CCOCC2)cc1)N/N=C/c1ccc(O)c(O)c1O` ; value = 9.29 µM

// field: AC50; key: `N#Cc1c(Nc2ccccc2Cl)s[nH]c1=O` ; value = 4.21 µM

// field: AC50; key: `O=[N+]([O-])c1ccc(Sc2cccc[n+]2[O-])c2nonc12` ; value = 11.6 µM

// field: AC50; key: `CN1CCc2cccc3c2[C@H]1Cc1ccc(O)c(O)c1-3` ; value = 18.4 µM

// field: AC50; key: `CC[C@@H](C)[C@H](NC(=O)OC(C)(C)C)c1nnc(S(=O)(=O)Cc2cc(C)ccc2C)o1` ; value = 12.6 µM

// field: AC50; key: `Cc1ccc(S(=O)(=O)CCC(=O)c2cccc([N+](=O)[O-])c2)cc1` ; value = 8.29 µM

// field: AC50; key: `C[C@]12CC[C@@H]3c4cc(O)c(O)cc4CC[C@H]3[C@@H]1CC[C@@H]2O` ; value = 9.63 µM

// field: AC50; key: `CCN(CC)C(=S)SSC(=S)N(CC)CC` ; value = 3.26 µM

---

- assay target: Histone acetyltransferase RTT109 (Candida albicans (strain SC5314 / ATCC MYA-2876))
- test summary: C. albicans Rtt109 HAT inhibition curves – biochemical, cherry-picked hits, plate reader, dose response (AID 588764)
- experimental parameters: Rtt109/Vps75 HAT activity, at 19.5 µM (top of the series)
Inconclusive results are not listed. Active and inactive are the calls of the source. No rule for the calls is given here.
endpoint name: activity change, negative = inhibition

>>> df
                                   molecule                              assay_target    result
0      NCC12CC3CC(C1)CC(c1ccc(Cl)cc1)(C3)C2  Histone acetyltransferase RTT109 (Candida albicans (strain SC5314 / ATCC MYA-2876))  inactive
1  CCOC(=O)C1CCCN(c2cc(=O)n(C3CCCCC3)c(=O)[nH]2)C1 (stereo not drawn)  Histone acetyltransferase RTT109 (Candida albicans (strain SC5314 / ATCC MYA-2876))  inactive
2  CCOc1cc(/C=N/NC(=O)CSc2nncn2C)ccc1OCc1cccc(C)c1  Histone acetyltransferase RTT109 (Candida albicans (strain SC5314 / ATCC MYA-2876))  inactive

---

- assay target: Histone acetyltransferase RTT109 (Candida albicans (strain SC5314 / ATCC MYA-2876)) (UniProt Q5AAJ8)
- test summary: C. albicans Rtt109 HAT inhibition curves – biochemical, cherry-picked hits, plate reader, dose response (AID 588764)
- experimental parameters: Rtt109/Vps75 HAT activity
Inconclusive results are not listed.
endpoint name: AC50

>>> df
                        compound  endpoint_name   result
0  CCc1ccc(C(=O)CSc2ncn[nH]2)cc1           AC50  4.11 µM

// field: AC50; key: CC1(C)CC2(CC(c3ccccc3F)c3ccc(O)c(O)c3O2)NC(=S)N1 (centres undefined) ; value = 19.7 µM

// field: AC50; key: `N#Cc1c(Nc2ccccc2)s[nH]c1=O` ; value = 5.84 µM

// field: AC50; key: `CCCNC(=O)Cn1sc2nc(C)cc(C)c2c1=O` ; value = 2.32 µM
